Data origin: ChEMBL document CHEMBL1137637

Tested on: L6
assay procedure: Cytotoxicity against rat L6 cells after 72 hrs by resazurin assay
Assay type: cell-based
condition summary: L6, 72 h
pIC50: −log10 of the molar value.
pIC50 listing for selected compounds.
measure name: pIC50

1. CCOC(=O)Cc1ccc(C#C[C@H]2CN3CCC2C[C@@H]3CO)cc1 (stereo partly specified)    3.81
2. OC[C@H]1CC2CCN1C[C@@H]2C#Cc1ccc(-c2ccccc2)cc1 (stereo partly specified)    4.96
3. OC[C@H]1CC2CCN1C[C@@H]2C#Cc1ccccc1 (stereo partly specified)    3.78
4. OC[C@H]1CC2CCN1C[C@@H]2C#Cc1ccc2ccccc2c1 (stereo partly specified)    4.30
5. C(=C1CN2CCC1CC2)c1ccc(C2OCCO2)cc1    3.67

---

Tested on: Leishmania donovani
assay procedure: Antileishmanial activity against Leishmania donovani MHOM/ET/67/L82 axenic amastigotes after 72 hrs by resazurin assay
Type: functional, organism-based
condition summary: MHOM/ET/67/L82, 72 h
measure name: IC50 (µM)

1) COc1ccc(C#CC2(O)CN3CCC2CC3)cc1 (stereo unspecified)    7
2) OC[C@H]1CC2CCN1C[C@@H]2C#Cc1ccc(OCc2ccccc2)cc1 (stereo partly specified)    8
3) CC(C)OC(=O)c1ccc(C2=CN3CCC2CC3)cc1    1.1
4) Nc1ccc(C#CC2(O)CN3CCC2CC3)cn1 (stereo unspecified)    10.8
5) C1=C(c2cnc3ccccc3c2)C2CCN1CC2    72.4
6) CCCCCCOc1ccc(C#CC2(O)CN3CCC2CC3)cc1 (stereo unspecified)    4.7
7) Cc1cc(C)cc(C#CC2(O)CN3CCC2CC3)c1 (stereo unspecified)    12.6
8) OC1(C#Cc2ccc3cc[nH]c3c2)CN2CCC1CC2 (stereo unspecified)    11.4
9) OC[C@H]1CC2CCN1C[C@@H]2C#Cc1ccc(-c2ccccc2)cc1 (stereo partly specified)    33.7
10) OC[C@H]1CC2CCN1C[C@@H]2C#Cc1cnc2ccccc2c1 (stereo partly specified)    40.3
11) CCOc1ccc(C#CC2(O)CN3CCC2CC3)cc1 (stereo unspecified)    10.5
12) OC1(C#Cc2ccc(OCc3ccccc3)cc2)CN2CCC1CC2 (stereo unspecified)    3.2
13) C(=C1\CN2CCC1CC2)/c1ccc(C2OCCO2)cc1    77.7
14) CCOC(=O)c1ccc(C#CC2(O)CN3CCC2CC3)cc1 (stereo unspecified)    28.7
15) C(=C1CN2CCC1CC2)c1ccc(C2OCCO2)cc1    38.6
16) COc1ccc2cc(C3=CN4CCC3CC4)ccc2c1    1.4
17) CCOC(=O)Cc1ccc(C#C[C@H]2CN3CCC2C[C@@H]3CO)cc1 (stereo partly specified)    14.6
18) C1=C(c2cc3ccccc3o2)C2CCN1CC2    82
19) OC[C@@H]1CC2CCN1C[C@@H]2C#Cc1ccc(-c2ccccc2)cc1 (stereo partly specified)    18.5
20) CCOC(=O)Cc1ccc(C#CC2(O)CN3CCC2CC3)cc1 (stereo unspecified)    17.3
21) OC[C@@H]1CC2CCN1C[C@@H]2C#Cc1ccc(OCc2ccccc2)cc1 (stereo partly specified)    7.4
22) C(=C1/CN2CCC1CC2)/c1ccc(C2OCCO2)cc1    82.1
23) COc1ccc(COc2ccc(C#CC3(O)CN4CCC3CC4)cc2)cc1OC (stereo unspecified)    4.6
24) C1=C(c2ccc(OCc3ccccc3)cc2)C2CCN1CC2    1.1
25) C(=C1/CN2CCC1CC2)/c1ccc2ccccc2c1    88.2
26) CCOC(=O)c1ccc(C2=CN3CCC2CC3)cc1    1
27) OC[C@@H]1CC2CCN1C[C@@H]2C#Cc1cnc2ccccc2c1 (stereo partly specified)    80
28) C1=C(c2cc3ccccc3s2)C2CCN1CC2    1.2
29) OC1(C#Cc2cccnc2)CN2CCC1CC2 (stereo unspecified)    9.2
30) C(=C1/CN2CCC1CC2)/c1ccc(-c2ccccc2)cc1    41.3
31) CC(=O)c1ccc(C#CC2(O)CN3CCC2CC3)s1 (stereo unspecified)    18.9
32) COC(=O)c1ccc(N)c(C#CC2(O)CN3CCC2CC3)c1 (stereo unspecified)    17.2
33) CCCCCCCCCCCCCCCCOP(=O)([O-])OCC[N+](C)(C)C    0.338
34) CCOC(=O)c1ccc(C#C[C@H]2CN3CCC2C[C@H]3CO)cc1 (stereo partly specified)    10.2
35) OC[C@@H]1CC2CCN1C[C@@H]2C#Cc1ccc2ccccc2c1 (stereo partly specified)    22.6
36) OC1(C#Cc2ccc(Cl)nc2)CN2CCC1CC2 (stereo unspecified)    16.3
37) C1=C(c2ccc3ccccc3c2)C2CCN1CC2    12.3
38) OC[C@H]1CC2CCN1C[C@@H]2C#Cc1ccc2ccccc2c1 (stereo partly specified)    12
39) CC(C)(C)[Si](C)(C)Oc1ccc(C2=CN3CCC2CC3)cc1    31.1
40) Cc1ccc(N)cc1C#CC1(O)CN2CCC1CC2 (stereo unspecified)    28.5
41) Oc1ccc(C#CC2(O)CN3CCC2CC3)cc1 (stereo unspecified)    20

---

tested system: UniProt:Q4Q5W4
Sequence (Q4Q5W4 whole entry): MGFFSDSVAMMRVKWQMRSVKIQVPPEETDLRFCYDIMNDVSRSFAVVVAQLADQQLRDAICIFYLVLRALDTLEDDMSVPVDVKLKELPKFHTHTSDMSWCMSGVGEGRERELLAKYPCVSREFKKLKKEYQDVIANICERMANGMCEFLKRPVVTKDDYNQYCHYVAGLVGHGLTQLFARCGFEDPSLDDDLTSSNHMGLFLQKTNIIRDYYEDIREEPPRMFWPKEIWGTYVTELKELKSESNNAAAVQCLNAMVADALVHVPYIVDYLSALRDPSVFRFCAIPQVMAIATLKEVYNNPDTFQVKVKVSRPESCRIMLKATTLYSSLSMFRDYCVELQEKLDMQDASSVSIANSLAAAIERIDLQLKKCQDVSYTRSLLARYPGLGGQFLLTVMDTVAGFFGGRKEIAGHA
assay procedure: Inhibition of Leishmania major recombinant squalene synthase expressed in Escherichia coli by liquid scintillation counter
IC50 listing for selected compounds.
measure name: IC50

1) C(=C1/CN2CCC1CC2)/c1ccccc1    > 1 µM
2) O=C(O)c1ccc(C#CC2(O)CN3CCC2CC3)cc1 (configuration not stated)    > 100 µM
3) OC1(C#Cc2ccc3cc[nH]c3c2)CN2CCC1CC2 (configuration not stated)    > 1 µM
4) OC1(C#Cc2cccnc2)CN2CCC1CC2 (configuration not stated)    > 1 µM
5) C(=C1\CN2CCC1CC2)/c1ccc(C2OCCO2)cc1    > 1 µM
6) OC[C@@H]1CC2CCN1C[C@@H]2C#Cc1ccc(-c2ccccc2)cc1 (some centres not stated)    > 1 µM
7) CC(C)OC(=O)c1ccc(C2=CN3CCC2CC3)cc1    > 1 µM
8) COc1ccc(C#CC2(O)CN3CCC2CC3)cc1 (configuration not stated)    > 1 µM
9) CCOC(=O)Cc1ccc(C#CC2(O)CN3CCC2CC3)cc1 (configuration not stated)    0.97 µM
10) OC[C@H]1CC2CCN1C[C@@H]2C#Cc1ccc(OCc2ccccc2)cc1 (some centres not stated)    > 1 µM
11) Cc1ccc(N)cc1C#CC1(O)CN2CCC1CC2 (configuration not stated)    > 1 µM
12) OC[C@@H]1CC2CCN1C[C@@H]2C#Cc1ccc2ccccc2c1 (some centres not stated)    > 1 µM

---

tested system: Squalene synthase (Homo sapiens, UniProt P37268)
Sequence (P37268 whole entry): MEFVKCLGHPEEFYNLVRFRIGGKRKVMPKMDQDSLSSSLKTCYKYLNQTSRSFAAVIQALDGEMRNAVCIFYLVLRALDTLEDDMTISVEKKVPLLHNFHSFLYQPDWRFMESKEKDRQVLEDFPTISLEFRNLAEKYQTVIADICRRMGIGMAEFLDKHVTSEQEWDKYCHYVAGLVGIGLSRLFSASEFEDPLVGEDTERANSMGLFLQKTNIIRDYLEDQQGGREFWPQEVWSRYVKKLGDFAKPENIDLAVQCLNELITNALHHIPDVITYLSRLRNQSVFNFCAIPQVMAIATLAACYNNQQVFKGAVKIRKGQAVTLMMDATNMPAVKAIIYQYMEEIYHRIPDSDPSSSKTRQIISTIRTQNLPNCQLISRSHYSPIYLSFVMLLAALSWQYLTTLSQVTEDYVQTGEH
assay procedure: Inhibition of human recombinant squalene synthase expressed in Escherichia coli BL21(DE3 pLysS) up to 1 uM by liquid scintillation counter
measure name: IC50

1. C(=C1/CN2CCC1CC2)/c1ccc2ccccc2c1    Not Active
2. c1ccc(-c2ccc(CC3CN4CCC3CC4)cc2)cc1 (stereo not given)    Not Active
3. c1ccc(CC2CN3CCC2CC3)cc1 (stereo not given)    Not Active
4. C(=C1CN2CCC1CC2)c1ccc(C2OCCO2)cc1    Not Active
5. C(=C1/CN2CCC1CC2)/c1ccc(-c2ccccc2)cc1    Not Active
6. C(=C1\CN2CCC1CC2)/c1ccc(C2OCCO2)cc1    Not Active
7. c1ccc2cc(CC3CN4CCC3CC4)ccc2c1 (stereo not given)    Not Active
8. O=Cc1ccc(/C=C2\CN3CCC2CC3)cc1    Not Active
9. C(=C1/CN2CCC1CC2)/c1ccc(C2OCCO2)cc1    Not Active
10. C(=C1/CN2CCC1CC2)/c1ccccc1    Not Active

---

Activity listing for selected molecules.
System: Leishmania amazonensis
assay procedure: Inhibition of sterol biosynthesis in Leishmania mexicana amazonensis promastigotes assessed as reduction in exogenous cholesterol level at 3 uM after 96 hrs by gas-liquid chromatography
Format: functional
Set-up: scale not given: the % may be the effect or the level left
measure name: Activity (%)

1) CCOC(=O)c1ccc(C2=CN3CCC2CC3)cc1    73.4
2) Cc1cc(C)cc(C#CC2(O)CN3CCC2CC3)c1 (stereo unspecified)    19.6
3) OC[C@H]1CC2CCN1C[C@@H]2C#Cc1ccc(-c2ccccc2)cc1 (stereo partly specified)    14
4) COc1ccc(COc2ccc(C#CC3(O)CN4CCC3CC4)cc2)cc1OC (stereo unspecified)    15.6

---

log10 of IC50 listing for selected compounds.
Tested on: L6
assay procedure: Cytotoxicity against rat L6 cells after 72 hrs by resazurin assay
Type: cell-based
condition summary: L6, 72 h
measure name: log10 of IC50 (log10 of the value in µM)

1) C(=C1/CN2CCC1CC2)/c1ccccc1    2.58
2) C1=C(c2cc3ccccc3s2)C2CCN1CC2    2.16
3) CCOC(=O)c1ccc(C2=CN3CCC2CC3)cc1    2.42
4) OC[C@H]1CC2CCN1C[C@@H]2C#Cc1ccc(OCc2ccccc2)cc1 (some centres undefined)    1.22
5) CCOC(=O)c1ccc(C#CC2(O)CN3CCC2CC3)cc1 (centres undefined)    2.23
6) OC1(C#Cc2ccc(OCc3ccccc3)cc2)CN2CCC1CC2 (centres undefined)    1.65
7) C(=C1\CN2CCC1CC2)/c1ccc(C2OCCO2)cc1    2.38
8) C1=C(c2cnc3ccccc3c2)C2CCN1CC2    2.44
9) C(=C1/CN2CCC1CC2)/c1ccc2ccccc2c1    1.41
10) C(=C1/CN2CCC1CC2)/c1ccc(-c2ccccc2)cc1    1.13
11) OC[C@@H]1CC2CCN1C[C@@H]2C#Cc1ccccc1 (some centres undefined)    1.87
12) COc1ccc2cc(C3=CN4CCC3CC4)ccc2c1    1.99
13) C1=C(c2cc3ccccc3o2)C2CCN1CC2    2.25
14) CCOC(=O)c1ccc(C#C[C@H]2CN3CCC2C[C@H]3CO)cc1 (some centres undefined)    1.58
15) c1ccc2cc(CC3CN4CCC3CC4)ccc2c1 (centres undefined)    1.99
16) OC[C@@H]1CC2CCN1C[C@@H]2C#Cc1ccc2ccccc2c1 (some centres undefined)    1.60
17) CC(C)(C)[Si](C)(C)Oc1ccc(C2=CN3CCC2CC3)cc1    1.38
18) CCOC(=O)c1ccc(C#C[C@H]2CN3CCC2C[C@@H]3CO)cc1 (some centres undefined)    1.74
